biological target: human Claudin-6 (CLDN6) (human) (UniProt P56747); assay: FACS, 1.5 ug Ab, ARK2 cells (2nd Ab only 1351.21)
Catalogue of binders with associated FACS fluorescence
Just the number.

// known answers, use as guide
AB4-7 (antibody, V domains shown, humanized) VH: QVQLVQSGAEVKKPGASVKMSCKASGYTFTSYTMHWIRQAPGQGQEWIGYINPSSTYTHYAQKFQGRATLTADKSTSTAYMELSSLRSEDTAVYYCSRGELGGFAYWGQGTLVTVSS VL: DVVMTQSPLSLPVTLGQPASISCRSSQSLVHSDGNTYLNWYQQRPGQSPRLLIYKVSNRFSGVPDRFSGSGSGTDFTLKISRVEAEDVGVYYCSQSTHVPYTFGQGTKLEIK | 7560
AB4-3 (antibody, V domains shown, humanized) VH: QVQLVQSGAEVKKPGASVKVSCKASGYTFTSYTMHWVRQAPGQGLEWMGYINPSSTYTHYAQKFQGRVTMTADTSTSTVYMELSSLRSEDTAVYYCSRGELGGFAYWGQGTLVTVSS VL: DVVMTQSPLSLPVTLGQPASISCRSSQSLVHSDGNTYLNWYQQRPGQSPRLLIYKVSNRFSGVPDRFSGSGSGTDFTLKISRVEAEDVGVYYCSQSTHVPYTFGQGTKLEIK | 1520
AB4-10 (antibody, V domains shown, humanized) VH: QVQLVQSGAEVKKPGASVKMSCKASGYTFTSYTMHWIRQAPGQGQEWIGYINPSSTYTHYIKKFKDRATLTADTSTSTAYMELSSLRSEDTAVYYCSRGELGGFAYWGQGTLVTVSS VL: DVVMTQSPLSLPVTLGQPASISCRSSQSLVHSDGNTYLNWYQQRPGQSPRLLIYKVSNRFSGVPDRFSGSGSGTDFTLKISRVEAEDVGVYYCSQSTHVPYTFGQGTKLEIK | 20200

Task: Record request: FACS fluorescence value, item AB18-6 (antibody, V domains shown) VH: QVQLVQSGAEVKKPGASVKISCKASGYSFTGYNMNWVRQAPGQGLEWIGNIDPYYGGSTYAQKFQGRATLTVDTSTSTAYMELSSLRSEDTAVYYCARERSGYVFSAMDYWGQGTLVTVSS VL: DIVMTQSPDSLAVSLGERVTMNCKSSQSVLFSSNQKNYLAWYQQKPGQPPKLLIYWASTRESGVPDRFSGSGSGTDFTLTISSVQAEDVAVYYCHQYLSSRTFGQGTKLEIK
Output: 1940

Task: AB4-9 (antibody, V domains shown, humanized) VH: QVQLVQSGAEVKKPGASVKMSCKASGYTFTSYTMHWIRQAPGQGLEWIGYINPSSTYTHYIKKFKDRATLTADTSTSTAYMELSSLRSEDTAVYYCSRGELGGFAYWGQGTLVTVSS VL: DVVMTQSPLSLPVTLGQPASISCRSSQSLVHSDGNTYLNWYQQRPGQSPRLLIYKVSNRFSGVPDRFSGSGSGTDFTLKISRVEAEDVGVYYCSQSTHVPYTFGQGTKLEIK , same question.
Output: 7790

Task: Now this one: AB9-chim (antibody, V domains shown) VH: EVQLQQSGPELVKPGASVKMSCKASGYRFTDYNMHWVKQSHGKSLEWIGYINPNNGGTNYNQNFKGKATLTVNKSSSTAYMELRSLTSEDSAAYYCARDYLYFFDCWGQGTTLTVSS VL: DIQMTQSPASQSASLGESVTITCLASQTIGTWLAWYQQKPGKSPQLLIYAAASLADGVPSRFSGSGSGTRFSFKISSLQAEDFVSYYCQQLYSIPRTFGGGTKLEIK
Output: 4490

Task: Also, AB1-Chim (antibody, V domains shown) VH: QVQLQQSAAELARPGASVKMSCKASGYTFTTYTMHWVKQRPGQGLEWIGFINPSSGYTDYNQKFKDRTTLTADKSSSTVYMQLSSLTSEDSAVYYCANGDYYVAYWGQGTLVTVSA VL: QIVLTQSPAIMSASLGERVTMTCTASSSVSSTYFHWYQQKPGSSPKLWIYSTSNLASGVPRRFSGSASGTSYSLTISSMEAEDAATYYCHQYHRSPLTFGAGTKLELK please.
Output: 51900

Task: Please answer likewise for AB9-4 (antibody, V domains shown, humanized) VH: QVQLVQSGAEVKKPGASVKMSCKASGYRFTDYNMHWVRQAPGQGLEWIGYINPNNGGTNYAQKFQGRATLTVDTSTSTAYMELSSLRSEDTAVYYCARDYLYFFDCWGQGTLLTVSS VL: DIQMTQSPSSLSASVGDRVTITCRASQTIGTWLAWYQQKPGKAPKLLIYAAASLADGVPSRFSGSGSGTDFTFTISSLQPEDFVTYYCQQLYSIPRTFGQGTKLEIK
Output: 1550

Task: Same question for AB4-11 (antibody, V domains shown, humanized) VH: QVQLVQSGAEVKKPGASVKMSCKASGYTFTSYTMHWIRQAPGQGLEWIGYINPSSTYTHYIKKFKDRATLTADKSTSTAYMELSSLRSEDTAVYYCSRGELGGFAYWGQGTLVTVSS VL: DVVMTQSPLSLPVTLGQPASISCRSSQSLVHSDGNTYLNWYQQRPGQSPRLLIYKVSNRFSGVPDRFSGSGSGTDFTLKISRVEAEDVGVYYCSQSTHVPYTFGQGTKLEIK please.
Output: 9170
